- MEASURED TARGET: SMN_W102F (Homo sapiens, UniProt Q16637, W102F)
- Construct: SMN (aa 82–147); His (N, cleaved yes)
- Sequence (Q16637 82-147 W102F): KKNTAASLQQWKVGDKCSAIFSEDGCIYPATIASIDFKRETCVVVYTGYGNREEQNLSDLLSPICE
- ASSAY TEXT: ITC binding to SMN Tudor mutant W102F
- CONDITION NOTES: Fig. 3d
ENDPOINT NAME: Kd

Incoming: // returns reported Kd for input Cn1c2c(c(=N)c3c1CCC3)CCC2 [Compound 1]
Outgoing: > 100 µM

====

- MEASURED TARGET: SMN_W102Y (Homo sapiens, UniProt Q16637, W102Y)
- Construct: SMN (aa 82–147); His (N, cleaved yes)
- Sequence (Q16637 82-147 W102Y): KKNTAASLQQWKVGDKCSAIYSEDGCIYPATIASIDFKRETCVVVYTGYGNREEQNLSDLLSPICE
- ASSAY TEXT: ITC binding to SMN Tudor mutant W102Y
- CONDITION NOTES: Fig. 3d
ENDPOINT NAME: pKd
Lab note — pKd values are minus log10 of concentrations in M.

Incoming: What value of pKd has been reported for the following molecule? Cn1c2c(c(=N)c3c1CCC3)CCC2
Outgoing: 5.08

====

- MEASURED TARGET: SMN_W102A (Homo sapiens, UniProt Q16637, W102A)
- Construct: SMN (aa 82–147); His (N, cleaved yes)
- Sequence (Q16637 82-147 W102A): as the sequence (Q16637 82-147 W102Y) above, with Y21A counted along it
- ASSAY TEXT: ITC binding to SMN Tudor mutant W102A
- CONDITION NOTES: Fig. 3d
ENDPOINT NAME: Kd

Incoming: Need Kd, item Cn1c2c(c(=N)c3c1CCC3)CCC2
Outgoing: > 244 µM

====

- MEASURED TARGET: WDR5 (WD40) (Homo sapiens, UniProt P61964)
ENDPOINT NAME: Kd

Incoming: // Kd lookup, key: Cn1c2c(c(=N)c3c1CCC3)CCC2
Outgoing: > 244 µM

====

- MEASURED TARGET: SMN Tudor domain (Homo sapiens)
- Construct: SMN (aa 82–147); His (N, cleaved yes); made in house; host or cells: E. coli BL21 (DE3) Codon plus RIL
- Sequence (Q16637 82-147): as the sequence (Q16637 82-147 W102F) above, with F21W counted along it
- ASSAY TEXT: ITC binding to Tudor domain of SMN
- CONDITION NOTES: Supplementary Fig. 11a, iTC-200; read-out: Kd, ITC binding curve, SMN
ENDPOINT NAME: Kd (µM)
Write it as a number; the unit µM goes unstated.

Incoming: Please give the measured Kd for this compound: Cn1c2c(c(=N)c3c1CCC3)CCC2 [Compound 1]
Outgoing: 3.9

====

- MEASURED TARGET: UniProt:Q9Y6K1
- Sequence (Q9Y6K1 275-417): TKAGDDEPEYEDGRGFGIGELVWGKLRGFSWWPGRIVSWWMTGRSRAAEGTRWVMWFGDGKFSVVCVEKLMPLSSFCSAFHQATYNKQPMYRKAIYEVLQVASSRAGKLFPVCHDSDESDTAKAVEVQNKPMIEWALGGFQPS
ENDPOINT NAME: Kd

Incoming: What value of Kd on UniProt:Q9Y6K1 does Cn1c2c(c(=N)c3c1CCC3)CCC2 have?
Outgoing: > 244 µM

====

- MEASURED TARGET: SMN Tudor domain (Homo sapiens)
- Construct: SMN (aa 82–147); His (N, cleaved yes); made in house; host or cells: E. coli BL21 (DE3) Codon plus RIL
- ASSAY TEXT: ITC binding to Tudor domain of SMN
- CONDITION NOTES: Supplementary Fig. 12; read-out: Kd, binding affinity (determined by ITC) of different compounds to SMN
ENDPOINT NAME: Kd

Nc1cccc2ccsc12 [Compound 12, benzo[b]thiophen-7-amine] : > 244 µM

Incoming: Requested field: Kd. Item: C[C@H]1CC[C@@H](N)c2ccccc21
Outgoing: > 244 µM

Incoming: Quick check: Kd of C[C@H]1Cc2ccccc2[C@@H]1N ?
Outgoing: > 244 µM
